- SYSTEM_NAME: Rabies virus glycoprotein G, Challenge Virus Standard (CVS)-11 strain (Rabies virus, strain CVS-11 (genotype 1 Lyssavirus)) (UniProt O92284)
- Sequence (O92284 20-524 limits assumed): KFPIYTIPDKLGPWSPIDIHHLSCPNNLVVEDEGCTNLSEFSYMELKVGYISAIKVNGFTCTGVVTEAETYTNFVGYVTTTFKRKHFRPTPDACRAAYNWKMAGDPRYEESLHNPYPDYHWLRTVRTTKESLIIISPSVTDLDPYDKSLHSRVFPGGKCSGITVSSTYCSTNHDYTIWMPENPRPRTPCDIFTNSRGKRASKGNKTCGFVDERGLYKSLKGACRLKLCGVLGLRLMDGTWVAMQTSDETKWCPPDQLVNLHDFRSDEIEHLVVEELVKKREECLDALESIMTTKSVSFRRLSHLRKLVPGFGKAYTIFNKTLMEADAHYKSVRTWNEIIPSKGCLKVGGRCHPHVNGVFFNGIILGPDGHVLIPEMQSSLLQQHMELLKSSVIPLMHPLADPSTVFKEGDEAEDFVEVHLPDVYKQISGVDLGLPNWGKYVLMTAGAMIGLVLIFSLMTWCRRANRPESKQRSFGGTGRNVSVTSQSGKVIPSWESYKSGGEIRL
- EXPERIMENT_NOTES: cell-based or functional assay
OUTCOME_MEASURE: CVS-11 neutralizing antibody titer (RFFIT), IU/mg (IU/mg)

BINDER | UNIT_SPEC | READING
LG214E8 (VHH) VHH: EVQLVESGGGSVQAGGSLRLSCAASGGTFNPYVMAWFRQAPGNEREFVARIRWSGGDAYYDDSVKGRFAITRDAAKNTVHLQMNSLKPEDTAVYYCAAATYGYGSYTYGGSYDLWGQGTQVTVSS | IU/mg | 9.37
LG214C10 (VHH) VHH: EVQLVESGGGLVQPGGSLRLSCAASGFIFGSYDMSWVRQAPGKGPEWVSGINSGGGSTGYADSVKGRFTISRDNAKNTLYLQMNSLKPEDTAVYYCSTNLYPTTDDVWGQGTQVTVSS | IU/mg | 10.6

Source of measurements: patent US20200123233A1
